Each entry below carries its recorded Relative Potency.
target: VLA-4 (Homo sapiens, UniProt P05556+P13612); test: In vitro binding assay: 51Cr-labeled Jurkat cells to solid phase-bound CS-1 peptide (SEQ ID NO:5); format: cell-based; set-up: inflammatory cells that contain the VLA-4 receptor [Jurkat cells; host or cells: Jurkat cells (human T lymphoblastic line); conditions: Table 2; normalized IC50 potency relative to standard peptide SEQ ID NO:6; Jurkat cells, CS-1
Sequence (P13612 34-1032): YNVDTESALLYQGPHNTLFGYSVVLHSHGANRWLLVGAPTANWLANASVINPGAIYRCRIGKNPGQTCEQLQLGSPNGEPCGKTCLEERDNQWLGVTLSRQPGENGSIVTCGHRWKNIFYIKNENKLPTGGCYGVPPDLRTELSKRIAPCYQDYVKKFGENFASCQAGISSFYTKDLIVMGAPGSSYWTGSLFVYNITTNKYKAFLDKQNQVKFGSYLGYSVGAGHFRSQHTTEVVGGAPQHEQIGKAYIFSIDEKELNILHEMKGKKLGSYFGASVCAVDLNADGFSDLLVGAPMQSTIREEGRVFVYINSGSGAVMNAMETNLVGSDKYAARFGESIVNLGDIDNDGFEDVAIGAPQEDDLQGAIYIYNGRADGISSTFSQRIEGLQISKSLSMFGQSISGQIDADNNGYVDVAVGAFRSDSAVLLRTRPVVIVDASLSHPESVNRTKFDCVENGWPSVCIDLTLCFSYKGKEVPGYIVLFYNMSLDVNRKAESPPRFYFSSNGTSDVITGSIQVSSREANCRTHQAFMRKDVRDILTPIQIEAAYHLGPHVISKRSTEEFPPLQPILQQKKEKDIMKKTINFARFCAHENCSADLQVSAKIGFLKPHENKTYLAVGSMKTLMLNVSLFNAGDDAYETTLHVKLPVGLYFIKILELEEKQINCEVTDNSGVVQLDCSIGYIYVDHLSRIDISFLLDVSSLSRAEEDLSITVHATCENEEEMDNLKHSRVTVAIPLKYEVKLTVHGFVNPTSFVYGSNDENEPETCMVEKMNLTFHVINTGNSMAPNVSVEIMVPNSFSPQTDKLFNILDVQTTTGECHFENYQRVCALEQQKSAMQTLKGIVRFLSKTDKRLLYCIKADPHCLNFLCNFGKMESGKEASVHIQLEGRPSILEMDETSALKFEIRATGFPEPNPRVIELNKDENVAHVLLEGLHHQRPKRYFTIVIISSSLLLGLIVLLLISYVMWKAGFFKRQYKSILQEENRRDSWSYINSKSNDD
Sequence (P05556 21-798): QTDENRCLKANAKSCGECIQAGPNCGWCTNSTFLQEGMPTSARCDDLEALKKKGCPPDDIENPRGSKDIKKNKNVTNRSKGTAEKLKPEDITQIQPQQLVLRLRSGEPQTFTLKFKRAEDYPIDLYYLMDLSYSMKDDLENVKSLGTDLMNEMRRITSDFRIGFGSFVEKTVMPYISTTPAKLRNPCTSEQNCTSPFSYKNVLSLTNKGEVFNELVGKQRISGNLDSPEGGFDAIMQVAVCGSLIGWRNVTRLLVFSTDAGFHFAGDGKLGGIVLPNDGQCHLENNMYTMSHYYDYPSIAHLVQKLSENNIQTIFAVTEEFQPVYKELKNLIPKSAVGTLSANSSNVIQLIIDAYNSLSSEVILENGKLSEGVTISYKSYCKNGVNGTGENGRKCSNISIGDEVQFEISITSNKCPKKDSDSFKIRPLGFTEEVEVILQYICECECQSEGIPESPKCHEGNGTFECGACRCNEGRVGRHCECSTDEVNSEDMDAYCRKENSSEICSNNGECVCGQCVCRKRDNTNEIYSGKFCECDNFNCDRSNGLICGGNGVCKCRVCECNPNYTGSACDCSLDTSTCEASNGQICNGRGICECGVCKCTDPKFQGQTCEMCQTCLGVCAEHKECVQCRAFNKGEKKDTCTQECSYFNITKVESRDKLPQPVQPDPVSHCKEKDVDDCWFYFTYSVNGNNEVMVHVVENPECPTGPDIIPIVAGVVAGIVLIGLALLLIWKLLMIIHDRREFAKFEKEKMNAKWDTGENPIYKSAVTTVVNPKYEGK
Positions of bridges follow the written chain, without caps; N, C: chain ends. Residues, ends and D or L forms follow the SMILES beside them.
Keep the answer to the number alone.

MOLECULE	Relative Potency
CC(C)C[C@@H]1NC(=O)[C@H](Cc2ccccc2)NC(=O)[C@@H](N)CSSC[C@@H](C(N)=O)NC(=O)[C@H](CO)NC(=O)[C@@H]2CCCN2C(=O)[C@H](Cc2ccccc2)NC(=O)[C@H](CC(=O)O)NC1=O [drawing 12] (H-CFLDFPSC-NH2; disulfide 1-8)	122

Now, please, on to the next molecule.
# input molecule: CC(=O)N[C@@H](Cc1ccccc1)C(=O)N[C@H]1CSSC[C@@H](C(N)=O)NC(=O)[C@H](Cc2ccccc2)NC(=O)[C@H](CC(=O)O)NC1=O [drawing 21] (Ac-FCDFC-NH2; disulfide 2-5) ; wanted: its Relative Potency 52.6

----------
Each entry below carries its recorded Relative Potency.
target: VLA-4 (Homo sapiens, UniProt P05556+P13612); assay: In vitro binding assay: 51Cr-labeled Jurkat cells to solid phase-bound CS-1 peptide (SEQ ID NO:5); type: cell-based; parameters: inflammatory cells that contain the VLA-4 receptor [Jurkat cells; host or cells: Jurkat cells (human T lymphoblastic line); conditions: Table 2; normalized IC50 potency relative to standard peptide SEQ ID NO:6; Jurkat cells, CS-1
Positions of bridges follow the written chain, without caps; N, C: chain ends. Non-standard residues stand in square brackets, D forms with d. Residues, ends and D or L forms follow the SMILES beside them.
Keep the answer to the number alone.

Recorded results for 5 compounds are shown here.
COMPOUND	Relative Potency
CC(=O)N[C@H]1CSSC[C@@H](C(=O)N2CCC[C@@H]2C(N)=O)NC(=O)[C@H](CC(=O)O)NC(=O)[C@H](CC(C)C)NC1=O (Ac-CLDC[dP]-NH2; disulfide 1-4)	0
CC(C)C[C@@H]1NC(=O)[C@H](Cc2ccccc2)NC(=O)[C@H](CCC(=O)O)NC(=O)[C@@H]2CCCN2C(=O)CNC(=O)[C@@H](N)CSSC[C@@H](C(N)=O)NC(=O)[C@H](Cc2ccccc2)NC(=O)[C@H](CC(=O)O)NC1=O [drawing 30] (H-CGPEFLDFC-NH2; disulfide 1-9)	9.39
CC(C)C[C@@H]1NC(=O)[C@H](Cc2ccccc2)NC(=O)[C@H](CCC(=O)O)NC(=O)[C@@H]2CCCN2C(=O)CNC(=O)[C@@H](N)CSSC[C@@H](C(N)=O)NC(=O)[C@@H]2CCCN2C(=O)[C@H](Cc2ccccc2)NC(=O)[C@H](CC(=O)O)NC1=O (H-CGPEFLDFPC-NH2; disulfide 1-10)	6.26
NC(=O)[C@@H]1CSSC[C@H](NC(=O)[C@H](N)Cc2ccccc2)C(=O)N[C@@H](CC(=O)O)C(=O)N[C@@H](Cc2ccccc2)C(=O)N1 (H-[dF]CDFC-NH2; disulfide 2-5)	3.13
CC(C)C[C@@H]1NC(=O)[C@H](Cc2ccccc2)NC(=O)[C@H](CCC(=O)O)NC(=O)[C@@H]2CCCN2C(=O)[C@@H](N)CSSC[C@@H](C(N)=O)NC(=O)[C@@H]2CCCN2C(=O)[C@H](Cc2ccccc2)NC(=O)[C@H](CC(=O)O)NC1=O [drawing 23] (H-CPEFLDFPC-NH2; disulfide 1-9)	31.3

# input compound: CC(C)C[C@@H]1NC(=O)[C@H](Cc2ccccc2)NC(=O)[C@H](CCC(=O)O)NC(=O)[C@@H](N)CSSC[C@@H](C(N)=O)NC(=O)[C@@H]2CCCN2C(=O)[C@H](Cc2ccccc2)NC(=O)[C@H](CC(=O)O)NC1=O [drawing 26] (H-CEFLDFPC-NH2; disulfide 1-8) ; wanted: its Relative Potency 18.8
